# reported pKi; entries follow
biological target: D(1A) dopamine receptor (Rattus norvegicus); experiment: In vitro affinity against Dopamine receptor D1
Sequence (P18901 whole entry): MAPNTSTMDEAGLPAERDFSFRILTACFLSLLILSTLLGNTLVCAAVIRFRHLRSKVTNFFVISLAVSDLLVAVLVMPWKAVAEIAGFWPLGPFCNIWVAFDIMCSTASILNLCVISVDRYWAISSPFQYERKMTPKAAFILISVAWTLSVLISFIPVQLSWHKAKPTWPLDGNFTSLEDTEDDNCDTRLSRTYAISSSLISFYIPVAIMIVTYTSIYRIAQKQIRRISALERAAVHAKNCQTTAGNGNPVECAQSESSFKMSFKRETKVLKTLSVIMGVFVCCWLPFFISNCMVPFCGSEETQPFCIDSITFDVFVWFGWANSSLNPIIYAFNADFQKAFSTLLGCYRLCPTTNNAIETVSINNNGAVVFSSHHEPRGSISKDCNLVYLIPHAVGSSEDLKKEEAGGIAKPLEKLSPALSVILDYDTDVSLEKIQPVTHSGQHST
pKi: −log10 of the molar value.
recorded-metric: pKi

# molecule, tested-target, reported-value
rows = [
    ("O=C1CC(CN2CCC(c3noc4cc(F)ccc34)CC2)Cc2occc21 (configuration not stated)", "D(1A) dopamine receptor (Rattus norvegicus)", 7.54),
    ("O=C1CC(CN2CCC(C(=O)c3ccc(F)cc3)CC2)Cc2occc21 (configuration not stated)", "D(1A) dopamine receptor (Rattus norvegicus)", 6.71),
]

###

# reported Log Ki; entries follow
experiment: In vitro affinity against Dopamine receptor D4; set-up: species or system Bos taurus

# compound, Log Ki
data = [
    ("O=C(CCCN1CCC(O)(c2ccc(Cl)cc2)CC1)c1ccc(F)cc1 [HALOPERIDOL]", -8.2),
    ("CN1CCN(C2=Nc3cc(Cl)ccc3Nc3ccccc32)CC1 [CLOZAPINE]", -7.42),
    ("O=C1CC(CN2CCC(c3noc4cc(F)ccc34)CC2)Cc2occc21 (centres undefined)", -7.68),
    ("O=C1CC(CN2CCC(C(=O)c3ccc(F)cc3)CC2)Cc2occc21 (centres undefined)", -7.04),
]

###

target: 5-hydroxytryptamine receptor 2A (Rattus norvegicus); experiment: In vitro affinity against serotonin 5-hydroxytryptamine 2A receptor
Sequence (P14842 whole entry): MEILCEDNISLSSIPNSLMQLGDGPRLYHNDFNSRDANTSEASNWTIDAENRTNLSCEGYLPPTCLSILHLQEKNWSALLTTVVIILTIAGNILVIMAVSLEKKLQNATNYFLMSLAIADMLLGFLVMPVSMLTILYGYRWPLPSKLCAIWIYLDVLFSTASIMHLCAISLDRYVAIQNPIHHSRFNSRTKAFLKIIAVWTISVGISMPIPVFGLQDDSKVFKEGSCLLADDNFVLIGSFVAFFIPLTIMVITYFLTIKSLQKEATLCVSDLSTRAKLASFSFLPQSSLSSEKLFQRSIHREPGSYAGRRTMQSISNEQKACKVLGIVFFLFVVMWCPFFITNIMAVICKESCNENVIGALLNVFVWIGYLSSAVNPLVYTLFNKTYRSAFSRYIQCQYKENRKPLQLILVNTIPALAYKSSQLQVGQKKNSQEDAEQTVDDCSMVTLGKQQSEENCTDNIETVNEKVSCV
# reported log10 of Ki; entries follow
recorded-metric: log10 of Ki (log10 of the value in nM)

# molecule, log10 of Ki
records = [
    ("O=C(CCCN1CCN(CC2CC(=O)c3ccoc3C2)CC1)c1ccc(F)cc1 (stereo unspecified)", 2.98),
    ("O=C1CC(CN2CCN(c3ccccn3)CC2)Cc2occc21 (stereo unspecified)", 3.92),
    ("O=C1CC(CN2CCC(c3noc4cc(F)ccc34)CC2)Cc2occc21 (stereo unspecified)", 1.03),
    ("COc1ccccc1N1CCN(CC2CC(=O)c3ccoc3C2)CC1 (stereo unspecified)", 3.36),
    ("O=C(CCCCN1CCN(CC2CC(=O)c3ccoc3C2)CC1)c1ccc(F)cc1 (stereo unspecified)", 3.10),
]

###

molecular target: 5-hydroxytryptamine receptor 2B (Rattus norvegicus, UniProt P30994); test: Compound was evaluated for antagonism against serotonin (5-hydroxytryptamine 2B receptor ) receptor; format: functional; conditions: read-out: pA2 (converted)
Sequence (P30994 whole entry): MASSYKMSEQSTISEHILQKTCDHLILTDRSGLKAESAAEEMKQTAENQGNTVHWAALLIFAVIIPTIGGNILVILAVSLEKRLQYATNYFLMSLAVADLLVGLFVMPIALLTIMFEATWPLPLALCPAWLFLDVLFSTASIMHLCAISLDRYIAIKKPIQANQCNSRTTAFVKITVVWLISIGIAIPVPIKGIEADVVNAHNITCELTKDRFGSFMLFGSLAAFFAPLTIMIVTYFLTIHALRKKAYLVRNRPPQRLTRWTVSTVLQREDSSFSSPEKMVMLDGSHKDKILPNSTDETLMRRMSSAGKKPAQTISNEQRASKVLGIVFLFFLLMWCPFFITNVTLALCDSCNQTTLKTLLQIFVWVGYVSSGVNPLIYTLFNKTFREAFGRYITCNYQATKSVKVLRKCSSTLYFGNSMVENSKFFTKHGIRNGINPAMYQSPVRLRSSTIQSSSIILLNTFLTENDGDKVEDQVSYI
recorded-metric: log10(Kb) (log10 of the value in nM)

# compound, log10(Kb)
measured = [
    ("O=C1CC(CN2CCN(c3ccccn3)CC2)Cc2occc21 (configuration not stated)", 3.54),
    ("O=C1CC(CN2CCN(c3ncccn3)CC2)Cc2occc21 (configuration not stated)", 3.26),
    ("O=C(CCCN1CCN(CC2CC(=O)c3ccoc3C2)CC1)c1ccc(F)cc1 (configuration not stated)", 2.64),
    ("COc1ccccc1N1CCN(CC2CC(=O)c3ccoc3C2)CC1 (configuration not stated)", 2.81),
    ("O=C1CC(CN2CCC(c3noc4cc(F)ccc34)CC2)Cc2occc21 (configuration not stated)", 2.39),
    ("O=C(CCCCN1CCN(CC2CC(=O)c3ccoc3C2)CC1)c1ccc(F)cc1 (configuration not stated)", 2.77),
]
